# system: UniProt P00533
# Sequence (P00533 25-1210): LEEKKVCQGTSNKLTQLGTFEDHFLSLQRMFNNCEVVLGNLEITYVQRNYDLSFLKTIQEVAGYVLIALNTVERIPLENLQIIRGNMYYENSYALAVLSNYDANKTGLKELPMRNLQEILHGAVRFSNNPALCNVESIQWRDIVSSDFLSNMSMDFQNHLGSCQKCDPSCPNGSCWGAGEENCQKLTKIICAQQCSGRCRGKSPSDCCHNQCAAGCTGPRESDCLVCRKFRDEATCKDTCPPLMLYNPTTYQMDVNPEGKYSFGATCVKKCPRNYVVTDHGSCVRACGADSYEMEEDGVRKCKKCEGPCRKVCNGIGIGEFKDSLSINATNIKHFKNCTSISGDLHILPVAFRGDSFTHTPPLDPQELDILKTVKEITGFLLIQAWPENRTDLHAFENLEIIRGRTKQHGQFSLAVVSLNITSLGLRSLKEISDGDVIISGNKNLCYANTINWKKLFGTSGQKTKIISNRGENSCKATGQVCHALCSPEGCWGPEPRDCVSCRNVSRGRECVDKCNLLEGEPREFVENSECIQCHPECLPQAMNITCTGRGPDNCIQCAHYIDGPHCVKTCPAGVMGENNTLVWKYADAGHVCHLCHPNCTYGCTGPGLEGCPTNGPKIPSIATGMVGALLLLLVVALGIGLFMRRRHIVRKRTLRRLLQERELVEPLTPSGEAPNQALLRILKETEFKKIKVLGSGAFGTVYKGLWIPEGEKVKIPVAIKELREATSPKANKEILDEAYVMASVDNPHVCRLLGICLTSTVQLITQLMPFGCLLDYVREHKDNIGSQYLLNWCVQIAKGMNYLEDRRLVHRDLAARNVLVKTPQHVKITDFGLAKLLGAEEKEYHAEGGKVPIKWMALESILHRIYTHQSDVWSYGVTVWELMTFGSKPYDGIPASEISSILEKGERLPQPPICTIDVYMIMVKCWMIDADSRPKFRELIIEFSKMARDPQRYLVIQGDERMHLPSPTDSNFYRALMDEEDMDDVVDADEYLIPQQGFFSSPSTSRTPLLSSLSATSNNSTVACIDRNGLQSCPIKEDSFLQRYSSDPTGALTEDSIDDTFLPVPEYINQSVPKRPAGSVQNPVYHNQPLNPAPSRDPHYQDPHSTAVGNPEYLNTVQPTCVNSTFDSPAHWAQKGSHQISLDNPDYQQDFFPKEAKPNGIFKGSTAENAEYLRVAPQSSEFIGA
# assay-explanation: HTRF cellular assay in human cancer cells H2073
# Format: cell-based
# Design: expressing WT EGFR; host or cells: NCI-H2073
# recorded-conditions: EGF 25 ng/ml
measurement-label: IC50 (nM)

compound="Cc1c(C#Cc2ccc(CN3CCC(CO)CC3)cc2)cc(C(F)F)c2cn(C(C(=O)Nc3nccs3)c3ncn4c3CCC43CC3)nc12 (centres unmarked) [Example 6]" system="UniProt P00533" measurement_label=IC50 measurement=545

----------
# assay-explanation: In vitro metabolic stability, intrinsic clearance in hepatocytes
# Type: in vitro ADME
# recorded-conditions: mouse, primary pooled cryopreserved hepatocytes in suspension
Item-by-item account of hepatocyte CLint at 1 μM
measurement-label: hepatocyte CLint at 1 μM (µL/min/1e6 cells)

compound="Cc1c(C#Cc2ccc(CN3CCC(CO)CC3)cc2)cc(C(F)F)c2cn(C(C(=O)Nc3nccs3)c3ncn4c3CCC4)nc12 (centres unmarked) [Example 5]" measurement_label="hepatocyte CLint at 1 μM" uom="µL/min/1e6 cells" measurement=36
compound="Cc1c(C#Cc2ccc(CN3CCC(CO)CC3)cc2)cc(C(F)F)c2cn(C(C(=O)Nc3nccs3)c3ncn4c3CCC43CC3)nc12 (centres unmarked) [Example 6]" measurement_label="hepatocyte CLint at 1 μM" uom="µL/min/1e6 cells" measurement=25
compound="O=C(Nc1nccs1)C(c1ncn2c1C[C@@H](F)C2)n1cc2c(Cl)cc(-c3ccc(N4CCOCC4)cc3)c(Cl)c2n1 (some centres unmarked) [Example 1]" measurement_label="hepatocyte CLint at 1 μM" uom="µL/min/1e6 cells" measurement=16
compound="Cc1c(-c2ccc(N3CCOCC3)cc2)cc(C(F)F)c2cn(C(C(=O)Nc3nccs3)c3ncn4c3C[C@@H](F)C4)nc12 (some centres unmarked) [Example 2]" measurement_label="hepatocyte CLint at 1 μM" uom="µL/min/1e6 cells" measurement=21
compound="Cc1c(-c2ccc(N3CCOCC3)cc2)cc(C(F)F)c2cn(C(C(=O)Nc3nccs3)c3ncn4c3CCC43CC3)nc12 (centres unmarked) [Example 3]" measurement_label="hepatocyte CLint at 1 μM" uom="µL/min/1e6 cells" measurement=25

----------
# assay-explanation: In vitro metabolic stability, intrinsic clearance in hepatocytes
# Assay type: in vitro ADME
# recorded-conditions: human, primary pooled cryopreserved hepatocytes in suspension
measurement-label: hepatocyte CLint at 1 μM (µL/min/1e6 cells)

molecule="Cc1c(C#Cc2ccc(CN3CCC(CO)CC3)cc2)cc(C(F)F)c2cn(C(C(=O)Nc3nccs3)c3ncn4c3CCC43CC3)nc12 (centres unmarked)" measurement_label="hepatocyte CLint at 1 μM" measurement=1
molecule="Cc1c(-c2ccc(N3CCOCC3)cc2)cc(C(F)F)c2cn(C(C(=O)Nc3nccs3)c3ncn4c3CCC43CC3)nc12 (centres unmarked)" measurement_label="hepatocyte CLint at 1 μM" measurement=5.9
molecule="Cc1c(C#Cc2ccc(CN3CCC(CO)CC3)cc2)cc(C(F)F)c2cn(C(C(=O)Nc3nccs3)c3ncn4c3CCC4)nc12 (centres unmarked)" measurement_label="hepatocyte CLint at 1 μM" measurement=2.4
molecule="O=C(Nc1nccs1)C(c1ncn2c1C[C@@H](F)C2)n1cc2c(Cl)cc(-c3ccc(N4CCOCC4)cc3)c(Cl)c2n1 (some centres unmarked)" measurement_label="hepatocyte CLint at 1 μM" measurement=3.5
molecule="Cc1c(-c2ccc(N3CCOCC3)cc2)cc(C(F)F)c2cn(C(C(=O)Nc3nccs3)c3ncn4c3C[C@@H](F)C4)nc12 (some centres unmarked)" measurement_label="hepatocyte CLint at 1 μM" measurement=6.1
